- measured_on: Epidermal growth factor receptor (Homo sapiens)
- protocol_summary: EGFR binders on small-molecule microarrays, primary screen, biochemical, small-molecule microarray, 635 nm fluorescence (AID 1104);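 also: score merges 667 nm emission intensity with spot signal to noise over triplicate slides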
- setup_conditions: EGFR binding, higher = more signal
readout_name: composite z-score

compound=CC(C)CNC(=O)[C@@]1(c2ccc([N+](=O)[O-])cc2)CC(=O)N(CC23CC4CC(CC(C4)C2)C3)[C@@H]1c1ccc(CO)cc1I measured_on="Epidermal growth factor receptor (Homo sapiens)" readout_number=0.578
compound=[N-]=[N+]=NCc1ccccc1[C@@H]1OC(c2ccc(OCCCO)cc2)=N[C@]1(Cc1ccccc1)C(=O)N1CCCCC1 measured_on="Epidermal growth factor receptor (Homo sapiens)" readout_number=-0.167
compound=CC(C)N1C(=O)c2ccccc2[C@@H](C(=O)NCCCN(C)C)[C@@H]1c1ccc(CO)cc1 measured_on="Epidermal growth factor receptor (Homo sapiens)" readout_number=-0.568
compound="CCCCC(CC)C(O)C1C=CC2C(=O)N(c3ccccc3)C(=O)C2N1Nc1ccccc1 (stereo unspecified)" measured_on="Epidermal growth factor receptor (Homo sapiens)" readout_number=-0.456
compound="Cc1cc(C)cc(N2C(=O)CS(=O)(=O)C2c2cccc([N+](=O)[O-])c2)c1 (stereo unspecified)" measured_on="Epidermal growth factor receptor (Homo sapiens)" readout_number=0.518
compound="CN1C(=O)C2C(C1=O)C1C=C(CCCO)C2C(c2cccs2)N1C (stereo unspecified)" measured_on="Epidermal growth factor receptor (Homo sapiens)" readout_number=-0.106
compound=COC(=O)C[C@@H]1C[C@H](C)[C@]2(O1)C(=O)N(Cc1ccccc1)c1ccc(NC(C)=O)cc12 measured_on="Epidermal growth factor receptor (Homo sapiens)" readout_number=0.324
compound=COCCOC(=O)N1C(=O)[C@@]2(c3cc(C#CCCO)ccc31)[C@H](c1ccc(O)cc1)N1[C@H](c3ccccc3)[C@H](c3ccccc3)OC(=O)[C@H]1[C@@H]2C(N)=O measured_on="Epidermal growth factor receptor (Homo sapiens)" readout_number=-0.709
compound=CC1=C2[C@@H](CCc3ccccc3)OB(O)C[C@@H]2n2c(=O)n(-c3ccccc3)c(=O)n2C1 measured_on="Epidermal growth factor receptor (Homo sapiens)" readout_number=0.249
compound=COCCOC(=O)N1C(=O)[C@@]2(c3cc(C#CC4(O)CCCCCC4)ccc31)[C@H](C(=O)N1CCCCCCC1)[C@H]1C(=O)O[C@H](c3ccccc3)[C@H](c3ccccc3)N1[C@@H]2c1ccccc1OCCO measured_on="Epidermal growth factor receptor (Homo sapiens)" readout_number=0.75
compound=CC(C)CNC(=O)[C@@H]1c2ccccc2C(=O)N(Cc2cc(C(F)(F)F)cc(C(F)(F)F)c2)[C@H]1c1ccc(CO)cc1 measured_on="Epidermal growth factor receptor (Homo sapiens)" readout_number=-0.88
compound=Cc1ccc(S[C@]2(C(=O)NCc3ccccc3)CC(=O)N(Cc3ccccc3)[C@@H]2c2ccc(CO)cc2)cc1 measured_on="Epidermal growth factor receptor (Homo sapiens)" readout_number=-1.22
compound=O=C/C=C/c1ccc2c(c1)OCO2 measured_on="Epidermal growth factor receptor (Homo sapiens)" readout_number=0.614
compound="CS(=O)(=O)CCOC(=O)C1=CC(c2ccc(CO)cc2)=CC(C2CC2)N(Cc2cc3c(cc2Br)OCO3)C=C1C(=O)OCCS(C)(=O)=O (stereo unspecified)" measured_on="Epidermal growth factor receptor (Homo sapiens)" readout_number=0.425
compound=CC(C)NC(=O)[C@@H]1c2ccccc2C(=O)N(Cc2ccccc2Cl)[C@H]1c1ccc(CO)cc1 measured_on="Epidermal growth factor receptor (Homo sapiens)" readout_number=-0.903
compound="COC(=O)c1ccc(C23CC2(C(NP(=O)(c2ccccc2)c2ccccc2)c2ccccc2)C3)cc1 (stereo unspecified)" measured_on="Epidermal growth factor receptor (Homo sapiens)" readout_number=0.134
